target: BLT1 (Homo sapiens); experiment: Intracellular calcium mobilization assay, cells expressing BLT1, LTB4; format: cell-based; settings: LTB4-mediated
Sequence (Q15722 whole entry, species assumed): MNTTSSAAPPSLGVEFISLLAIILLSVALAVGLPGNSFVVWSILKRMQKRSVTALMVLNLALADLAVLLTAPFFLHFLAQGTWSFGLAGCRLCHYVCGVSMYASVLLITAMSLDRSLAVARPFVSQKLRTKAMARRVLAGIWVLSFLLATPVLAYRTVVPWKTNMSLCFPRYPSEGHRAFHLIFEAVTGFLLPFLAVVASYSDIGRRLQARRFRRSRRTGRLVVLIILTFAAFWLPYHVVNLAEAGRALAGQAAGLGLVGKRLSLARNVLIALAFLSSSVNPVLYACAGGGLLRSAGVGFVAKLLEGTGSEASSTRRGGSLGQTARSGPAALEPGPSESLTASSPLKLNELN
pIC50: −log10 of the molar value.
endpoint: pIC50

compound: CCc1ccc(OCCNc2cc(N3CCNC(C)C3)ccc2[N+](=O)[O-])cc1 (stereo not drawn)
system_under_test: BLT1 (Homo sapiens)
pIC50: 4.40

compound: Cc1ccc(N2C(=O)/C(=C/Nc3ccc(S(=O)(=O)Nc4ccc(O)cc4)cc3)c3ccccc3C2=O)cc1C
system_under_test: BLT1 (Homo sapiens)
pIC50: 4.65

compound: CCOc1ccc(NCC(O)Cn2c3ccccc3c3ccccc32)cc1 (stereo not drawn)
system_under_test: BLT1 (Homo sapiens)
pIC50: 4.52

I: CN(C)c1cccc(Nc2nc3ccccc3nc2NS(=O)(=O)c2ccc([N+](=O)[O-])cc2)c1
II: CCC(=O)NCCNc1nc2cc(C)cc(C)c2cc1C#N
III: COc1cc(NCCCC(C)Nc2ccnc3cc4ccccc4cc23)c2ncccc2c1 (stereo not drawn)
Query :: Arrange the 3 compounds by rising pIC50, starting with the smallest. In plain terms: list the labels in the order you were asked to.
Result :: I, III, II

A: COc1ccccc1C(=O)OCCNc1nc2cc(C)cc(C)c2cc1C#N
B: C(=C\N1CCCC1)/c1nnnn1-c1ccc2ccccc2c1
Query :: Which gives the smaller pIC50 number: A or B ? I would appreciate it if you answered with the label of your choice.
Result :: B
(B: 4.40, A: 5.60)
